# assay_text: Exposure study: neratinib pharmacokinetics with and without concurrent ketoconazole
# recorded_conditions: human, in vivo, 240 mg, 240 mg neratinib; value outside brackets; read-out: AUC∞
metric: AUC(0-inf) (ng·h/mL)
Enter your answer as a number in ng·h/mL; do not include the unit.

q: Kindly indicate its recorded AUC(0-inf). Item: CCOc1cc2ncc(C#N)c(Nc3ccc(OCc4ccccn4)c(Cl)c3)c2cc1NC(=O)/C=C/CN(C)C [Neratinib]
a: 903

###

# assay_text: Exposure study: neratinib pharmacokinetics with and without concurrent ketoconazole
# recorded_conditions: human, in vivo, 240 mg, 240 mg neratinib; value outside brackets; read-out: Cmax
# Description: Exposure studies were performed to determine if gastrointestinal tolerability is related to systemic exposure of neratinib maleate.
metric: Cmax

q: Output Cmax of CCOc1cc2ncc(C#N)c(Nc3ccc(OCc4ccccn4)c(Cl)c3)c2cc1NC(=O)/C=C/CN(C)C
a: 55.3 ng/mL

###

# assay_text: Exposure study: neratinib pharmacokinetics with and without concurrent ketoconazole
# recorded_conditions: human, in vivo, 240 mg, 240 mg neratinib; value outside brackets; read-out: AUC t
metric: AUC(0-t)
Give your result as the value with the unit written after it.

q: Recall and state the measured AUC(0-t) for CCOc1cc2ncc(C#N)c(Nc3ccc(OCc4ccccn4)c(Cl)c3)c2cc1NC(=O)/C=C/CN(C)C [Neratinib] .
a: 835 ng·h/mL

###

# assay_text: Exposure study: neratinib pharmacokinetics with and without concurrent ketoconazole
# recorded_conditions: human, in vivo, 240 mg, 240 mg neratinib; geometric mean in brackets; read-out: AUC∞ [Geo mean]
metric: AUC(0-inf) (ng·h/mL)
Number only, in ng·h/mL; omit the unit.

q: Item CCOc1cc2ncc(C#N)c(Nc3ccc(OCc4ccccn4)c(Cl)c3)c2cc1NC(=O)/C=C/CN(C)C [Neratinib] : provide AUC(0-inf)
a: 802
